Source of measurements: patent US20260048151A1

Test: Absorption and emission spectra, fluorescence quantum efficiency in EtOH, PBS and lipid vesicles (MLV)
Type: physicochemical
Details: in EtOH
Assign yes (1) to entries whose absorption maximum meets or exceeds 600 nm; assign no (0) to the rest.

Could you tell me if the measured absorption maximum of CCCCCCN(CCCCCC)c1ccc2c(c1)OCC(/C=C/c1c(F)c[n+](CCC[N+](CC)(CC)CC)c3ccccc13)=C2.[Br-].[Br-] [2c] reaches 600 nm or more? yes (1)

Query CCCCCN(CCCCC)c1ccc2c(c1)OCC(/C=C/c1c(F)c[n+](CCC[N+](CC)(CC)CC)c3ccccc13)=C2.[Br-].[Br-] [2b] next yes (1)

Query CCCCCCN(CCCCCC)c1ccc2c(c1)OCC(/C=C/c1cc[n+](CCCS(=O)(=O)[O-])cc1F)=C2 [1c] next no (0)

Query CCCCN(CCCC)c1ccc2c(c1)OCC(/C=C/c1c(F)c[n+](CCC[N+](CC)(CC)CC)c3ccccc13)=C2.[Br-].[Br-] [2a] next yes (1)

Query CCCCCN(CCCCC)c1ccc2c(c1)OCC(/C=C/c1cc[n+](CCCS(=O)(=O)[O-])cc1F)=C2 [1b] next no (0)

Query CCCCN(CCCC)c1ccc2cc(/C=C/c3cc[n+](CCCS(=O)(=O)[O-])cc3)ccc2c1 [Di-4-ANEPPS, reference compound] next no (0)

Query CCCCN(CCCC)c1ccc2c(c1)OCC(/C=C/c1cc[n+](CCCS(=O)(=O)[O-])cc1F)=C2 [1a] next no (0)

###

Test: Absorption and emission spectra, fluorescence quantum efficiency in EtOH, PBS and lipid vesicles (MLV)
Type: physicochemical
Details: in lipid vesicle suspensions
measuredEndpoint: Fluorescence quantum efficiency (FQE)
Answer field: number only, no words.

For the molecule shown here, CCCCN(CCCC)c1ccc2cc(/C=C/c3cc[n+](CCCS(=O)(=O)[O-])cc3)ccc2c1 [Di-4-ANEPPS, reference compound] , give the reported Fluorescence quantum efficiency (FQE). 0.30

Query CCCCCCN(CCCCCC)c1ccc2c(c1)OCC(/C=C/c1cc[n+](CCCS(=O)(=O)[O-])cc1F)=C2 [1c] next 0.22

Query CCCCN(CCCC)c1ccc2c(c1)OCC(/C=C/c1c(F)c[n+](CCC[N+](CC)(CC)CC)c3ccccc13)=C2.[Br-].[Br-] [2a] next 0.10

Query CCCCCCN(CCCCCC)c1ccc2c(c1)OCC(/C=C/c1c(F)c[n+](CCC[N+](CC)(CC)CC)c3ccccc13)=C2.[Br-].[Br-] [2c] next 0.10

Query CCCCN(CCCC)c1ccc2c(c1)OCC(/C=C/c1cc[n+](CCCS(=O)(=O)[O-])cc1F)=C2 [1a] next 0.31

###

Task for the reader: assign each of the following compounds its reported absorption maximum.
Experiment: Absorption and emission spectra, fluorescence quantum efficiency in EtOH, PBS and lipid vesicles (MLV)
Format: physicochemical
Details: in MLV (multilamellar lipid vesicles)
The reply should be a number in nm, with the unit left off.

For the compound shown here, CCCCN(CCCC)c1ccc2cc(/C=C/c3cc[n+](CCCS(=O)(=O)[O-])cc3)ccc2c1 [Di-4-ANEPPS, reference compound] , give the reported absorption maximum. 464

Query CCCCN(CCCC)c1ccc2c(c1)OCC(/C=C/c1c(F)c[n+](CCC[N+](CC)(CC)CC)c3ccccc13)=C2.[Br-].[Br-] [2a] next 614

Query CCCCN(CCCC)c1ccc2c(c1)OCC(/C=C/c1cc[n+](CCCS(=O)(=O)[O-])cc1F)=C2 [1a] next 540

Query CCCCCCN(CCCCCC)c1ccc2c(c1)OCC(/C=C/c1c(F)c[n+](CCC[N+](CC)(CC)CC)c3ccccc13)=C2.[Br-].[Br-] [2c] next 599

Query CCCCCN(CCCCC)c1ccc2c(c1)OCC(/C=C/c1c(F)c[n+](CCC[N+](CC)(CC)CC)c3ccccc13)=C2.[Br-].[Br-] [2b] next 611

Query CCCCCCN(CCCCCC)c1ccc2c(c1)OCC(/C=C/c1cc[n+](CCCS(=O)(=O)[O-])cc1F)=C2 [1c] next 534

Query CCCCCN(CCCCC)c1ccc2c(c1)OCC(/C=C/c1cc[n+](CCCS(=O)(=O)[O-])cc1F)=C2 [1b] next 540

Query CCCCN(CCCC)c1ccc2cc(/C=C/c3c(F)c[n+](CCC[N+](CC)(CC)CC)c4ccccc34)ccc2c1.[Br-].[Br-] [ElectroFluor630, Di-4-ANEQ (F) PTEA, reference compound] next 547
